# assayed.target: alpha2A adrenergic receptor (Alpha2A) (Homo sapiens, UniProt P08913)
# Construct: expressed in transfected cells; host or cells: CHO cells (membrane fractions)
# Sequence (P08913 whole entry): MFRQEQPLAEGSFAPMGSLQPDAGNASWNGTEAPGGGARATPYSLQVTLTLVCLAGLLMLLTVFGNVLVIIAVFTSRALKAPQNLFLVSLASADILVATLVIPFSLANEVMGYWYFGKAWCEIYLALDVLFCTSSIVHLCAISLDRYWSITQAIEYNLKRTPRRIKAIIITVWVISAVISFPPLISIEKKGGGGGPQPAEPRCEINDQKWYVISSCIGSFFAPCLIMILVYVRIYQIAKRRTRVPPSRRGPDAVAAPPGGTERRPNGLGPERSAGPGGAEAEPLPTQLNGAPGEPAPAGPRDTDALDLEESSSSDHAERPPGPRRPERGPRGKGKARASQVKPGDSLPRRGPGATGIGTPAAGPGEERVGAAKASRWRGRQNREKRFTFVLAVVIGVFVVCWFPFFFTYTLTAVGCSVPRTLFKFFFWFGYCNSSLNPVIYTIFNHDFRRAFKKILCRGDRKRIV
# assay: Competitive radioligand binding assay, α2A (antagonist radioligand)
# condition.summary: compound at 10 μM, 2nd individual result, read-out: % inhibition of control specific binding, 2nd
Counter-ions that a name gives are not always drawn.
Label true when inhibition at 10 µM is strictly below 50%; otherwise label false.

>>> class_label("N[C@@H](COS(N)(=O)=O)Cc1ccccc1 [Compound 9, hydrochloride]")
"false"
>>> class_label("NC(=O)OC[C@H](N)Cc1ccccc1 [APC, (R)-2-amino-3-phenylpropyl carbamate, reference compound]")
"true"
>>> class_label("NC(=O)NC[C@H](N)Cc1ccccc1 [Compound 3, hydrochloride]")
"true"
>>> class_label("NC(=O)CC[C@H](N)Cc1ccccc1 [Compound 4, hydrochloride]")
"true"
>>> class_label("NC(=S)OC[C@H](N)Cc1ccccc1 [Compound 8, dihydrochloride]")
"false"

We now examine a further compound.
Req: For NC(=O)SC[C@H](N)Cc1ccccc1 [Compound 10, hydrochloride] , is the recorded inhibition at 10 µM below the cut-off of 50%?
Resp: true

* * *

# assayed.target: alpha2A adrenergic receptor (Alpha2A) (Homo sapiens, UniProt P08913)
# Construct: expressed in transfected cells; host or cells: CHO cells (membrane fractions)
# assay: Competitive radioligand binding assay, α2A (antagonist radioligand)
# condition.summary: compound at 10 μM, mean, read-out: % inhibition of control specific binding, Mean
Structures can show the parent of a compound that is named as a salt.
measure: inhibition at 10 µM (%)
Report only the number, with the unit % understood.

>>> recorded_result("NC(=O)NC[C@H](N)Cc1ccccc1 [Compound 3, hydrochloride]")
4.8

Req: Dear colleague, I am looking for the recorded inhibition at 10 µM of the following compound: NC(=O)CC[C@H](N)Cc1ccccc1 [Compound 4, hydrochloride]
Resp: -0.8

Req: Dear colleague, I am looking for the recorded inhibition at 10 µM of the following compound: NC(=O)OC[C@H](N)Cc1ccccc1 [APC, (R)-2-amino-3-phenylpropyl carbamate, reference compound]
Resp: 7

Req: Dear colleague, I am looking for the recorded inhibition at 10 µM of the following compound: N[C@@H](COS(N)(=O)=O)Cc1ccccc1 [Compound 9, hydrochloride]
Resp: 68.3

Req: Dear colleague, I am looking for the recorded inhibition at 10 µM of the following compound: NC(=O)SC[C@H](N)Cc1ccccc1 [Compound 10, hydrochloride]
Resp: 55.3

Req: Dear colleague, I am looking for the recorded inhibition at 10 µM of the following compound: NC(=S)OC[C@H](N)Cc1ccccc1 [Compound 8, dihydrochloride]
Resp: 60.6

* * *

Catalogue of compounds with associated inhibition at 10 µM
# assayed.target: dopamine transporter (DAT) (Homo sapiens, UniProt Q01959)
# Construct: expressed in transfected cells; host or cells: CHO cells (membrane fractions)
# Sequence (Q01959 whole entry): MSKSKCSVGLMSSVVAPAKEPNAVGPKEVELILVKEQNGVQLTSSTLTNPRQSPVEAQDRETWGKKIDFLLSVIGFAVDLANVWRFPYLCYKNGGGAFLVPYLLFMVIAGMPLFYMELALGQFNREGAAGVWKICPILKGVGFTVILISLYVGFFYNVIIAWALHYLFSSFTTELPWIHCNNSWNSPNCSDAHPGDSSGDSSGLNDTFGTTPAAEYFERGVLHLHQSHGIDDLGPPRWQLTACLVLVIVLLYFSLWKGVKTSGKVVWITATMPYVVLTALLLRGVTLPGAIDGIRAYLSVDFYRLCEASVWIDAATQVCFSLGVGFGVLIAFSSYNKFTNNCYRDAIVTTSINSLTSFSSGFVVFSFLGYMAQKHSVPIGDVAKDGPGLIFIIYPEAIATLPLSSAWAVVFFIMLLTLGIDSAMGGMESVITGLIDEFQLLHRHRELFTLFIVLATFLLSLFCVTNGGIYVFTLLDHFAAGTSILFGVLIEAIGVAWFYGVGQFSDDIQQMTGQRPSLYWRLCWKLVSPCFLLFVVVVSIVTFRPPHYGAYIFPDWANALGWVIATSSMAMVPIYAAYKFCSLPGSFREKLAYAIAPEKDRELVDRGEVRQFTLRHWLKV
# assay: Competitive radioligand binding assay, dopamine transporter (antagonist radioligand)
# condition.summary: compound at 10 μM; [3H]BTCP 4 nM; human recombinant (CHO cells); read-out: % Inhibition of Binding at Each Transporter or Receptor Target, DAT
Where a name gives a salt, the structure may show the parent alone.
Report only the number, with the unit % understood.

>>> recorded_result("NC(=O)CC[C@H](N)Cc1ccccc1 [Compound 4, hydrochloride]")
56.5
>>> recorded_result("NC(=S)OC[C@H](N)Cc1ccccc1 [Compound 8, dihydrochloride]")
81.6
>>> recorded_result("N[C@@H](COS(N)(=O)=O)Cc1ccccc1 [Compound 9, hydrochloride]")
35.2
>>> recorded_result("NC(=O)NC[C@H](N)Cc1ccccc1 [Compound 3, hydrochloride]")
88.6
>>> recorded_result("NC(=O)OC[C@H](N)Cc1ccccc1 [APC, (R)-2-amino-3-phenylpropyl carbamate, reference compound]")
80.2

Continue with the next compound.
Req: Dear colleague, I am looking for the recorded inhibition at 10 µM of the following compound: NC(=O)SC[C@H](N)Cc1ccccc1 [Compound 10, hydrochloride]
Resp: 86.3
